Cited source: patent US11701372B2

Format: physicochemical
Conditions: pH 2.0; Ambient; 48 h
Measured quantity: % assay/degs, difference from T = 0 (%)
Reply with just the number (in %).

What value of measured % assay/degs, difference from T = 0 is listed for N#C[C@@]1(c2ccc3c(N)ncnn23)O[C@H](CO)[C@@H](O)[C@H]1O ?
0.06

What value of measured % assay/degs, difference from T = 0 is listed for CCC(CC)COC(=O)[C@H](C)N[P@](=O)(OC[C@H]1O[C@@](C#N)(c2ccc3c(N)ncnn23)[C@H](O)[C@@H]1O)Oc1ccccc1 ?
−1.8

What value of measured % assay/degs, difference from T = 0 is listed for N#C[C@@]1(c2ccc3c(N)ncnn23)O[C@H](COP(=O)(O)Oc2ccccc2)[C@@H](O)[C@H]1O ?
1.37

What value of measured % assay/degs, difference from T = 0 is listed for CCC(CC)COC(=O)[C@H](C)N[P@](=O)(OC[C@H]1O[C@@](C(N)=O)(c2ccc3c(N)ncnn23)[C@H](O)[C@@H]1O)Oc1ccccc1 ?
0.00
